Reference source: patent US7576222B2

# TEST TARGET: catalytic domain of the recombinant TACE protein (Homo sapiens, UniProt P78536)
# Construct: The catalytic domain of the recombinant TACE protein was expressed and purified; made in house
# Sequence (P78536 223-474 limits assumed): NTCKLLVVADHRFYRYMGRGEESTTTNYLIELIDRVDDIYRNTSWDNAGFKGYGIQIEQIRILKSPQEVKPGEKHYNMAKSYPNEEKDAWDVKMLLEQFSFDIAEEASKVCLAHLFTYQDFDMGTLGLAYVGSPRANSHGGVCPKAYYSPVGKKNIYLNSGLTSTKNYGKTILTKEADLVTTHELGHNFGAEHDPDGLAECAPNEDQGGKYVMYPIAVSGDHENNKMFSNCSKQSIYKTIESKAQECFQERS
# PROTOCOL DESCRIPTION: TACE FRET assay using TACE cat
# Type: biochemical
# MEASUREMENT CONTEXT: read-out: TACE Inhibition (%)
Each entry gets NOT MET if its inhibition at 1 µM stays under 30%, and MET if its inhibition at 1 µM is 30% or above.

>>> assigned_class("CC#CCOc1ccc(S(=O)(=O)N[C@@H](Cc2c(C)n(Cc3ccc4c(c3)OCO4)c3ccc(Cl)cc23)C(=O)O)cc1")
"MET"
>>> assigned_class("CC#CCOc1ccc(S(=O)(=O)N[C@@H](Cc2c[nH]c3ccc(Cl)cc23)C(=O)O)cc1")
"MET"
>>> assigned_class("CC#CCOc1ccc(S(=O)(=O)N[C@@H](Cc2c(C)n(Cc3ccc(Cl)cc3)c3ccccc23)C(=O)O)cc1")
"MET"
>>> assigned_class("CC#CCOc1ccc(S(=O)(=O)N[C@H](Cc2cn(Cc3ccc(O)cc3)c3ccccc23)C(=O)O)cc1")
"NOT MET"
>>> assigned_class("CC#CCOc1ccc(S(=O)(=O)N[C@@H](Cc2cn(Cc3ccc(C(F)(F)F)cc3)c3ccc(OC)cc23)C(=O)O)cc1")
"MET"
>>> assigned_class("CC#CCOc1ccc(S(=O)(=O)N[C@@H](Cc2cn(Cc3ccc(OC(F)(F)F)cc3)c3ccc(C#N)cc23)C(=O)O)cc1")
"NOT MET"

---

# TEST TARGET: catalytic domain of the recombinant TACE protein (Homo sapiens, UniProt P78536)
# Construct: The catalytic domain of the recombinant TACE protein was expressed and purified; made in house
# PROTOCOL DESCRIPTION: TACE FRET assay using TACE cat
# Type: biochemical
# MEASUREMENT CONTEXT: TACE FRET assay, catalytic domain of recombinant TACE; read-out: TACE IC50
pIC50: −log10 of the molar value.
Each entry gets False if its pIC50 stays under 6, and True if its pIC50 is 6 or above.

>>> assigned_class("CC#CCOc1ccc(S(=O)(=O)N[C@H](Cc2cn(Cc3ccccc3)c3ccccc23)C(=O)O)cc1")
"False"
>>> assigned_class("C=CCOc1ccc(Cn2cc(C[C@@H](NS(=O)(=O)c3ccc(OCC#CC)cc3)C(=O)O)c3ccccc32)cc1")
"True"
>>> assigned_class("CC#CCOc1ccc(S(=O)(=O)N[C@@H](Cc2c[nH]c3ccc(OC)cc23)C(=O)O)cc1")
"True"
>>> assigned_class("CC#CCOc1ccc(S(=O)(=O)N[C@@H](Cc2c[nH]c3ccc(C)cc23)C(=O)O)cc1")
"True"
>>> assigned_class("CC#CCOc1ccc(S(=O)(=O)N[C@@H](Cc2c[nH]c3ccccc23)C(=O)O)cc1")
"False"
>>> assigned_class("CC#CCOc1ccc(S(=O)(=O)N[C@H](Cc2cn(Cc3cccc(C(F)(F)F)c3)c3ccccc23)C(=O)O)cc1")
"False"
>>> assigned_class("CC#CCOc1ccc(S(=O)(=O)N[C@H](Cc2cn(Cc3ccc(C)cc3)c3ccccc23)C(=O)O)cc1")
"False"
>>> assigned_class("CC#CCOc1ccc(S(=O)(=O)N[C@H](Cc2cn(Cc3ccc(Cl)cc3)c3ccccc23)C(=O)O)cc1")
"False"
